- Test system: 966289-007-R4-J1-PDC complex spheroid viability;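 note: spheroids exposed to the agents for seven days before readout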
- test-method-notes: Anticancer human tumor 966289-007-R4-J1-PDC patient-derived pancreatic adenocarcinoma cell line growth inhibition [GQUAD]; active = viability on the fitted dose curve at most 10% of control; inactive = the rest
- measurement-setup: second compound 0.1 µM; first compound 1 µM
Thanks in advance; please answer with one of these: YES for active, NO for inactive

| compound | classification |
| --- | --- |
| COc1ncnc(C2CC2)c1-c1ncc2cnn(Cc3ccc(-c4nc(C(F)(F)F)cn4C(C)C)cc3)c2n1 + Cc1cnc(CNC(=O)c2c(=O)c3ccc(N4CCCN(C)CC4)nc3n3c2sc2ccccc23)cn1 | NO |
| Nc1ccn(C2OC(CO)C(O)C2(F)F)c(=O)n1 (stereo unspecified) + Cc1[nH]c2ccc(F)cc2c1-c1nc2c3cccnc3c3ncccc3c2[nH]1 | YES |

Here is another compound to look at.
## Task Test call, this compound: COc1cc(C2c3cc4c(cc3C(OC3OC5COC(C)OC5C(O)C3O)C3COC(=O)C23)OCO4)cc(OC)c1O (stereo unspecified) + CN(C)c1ccc(Nc2c3ccc(NC(=O)CCN4CCCC4)cc3nc3cc(NC(=O)CCN4CCCC4)ccc23)cc1
## Result YES
